Biological target: Human HER3, endogenous, on human cancer cell lines (SK-Br-3, MCF7, BT-474) (human, UniProt P21860 20-1342)
Sequence (P21860 20-1342): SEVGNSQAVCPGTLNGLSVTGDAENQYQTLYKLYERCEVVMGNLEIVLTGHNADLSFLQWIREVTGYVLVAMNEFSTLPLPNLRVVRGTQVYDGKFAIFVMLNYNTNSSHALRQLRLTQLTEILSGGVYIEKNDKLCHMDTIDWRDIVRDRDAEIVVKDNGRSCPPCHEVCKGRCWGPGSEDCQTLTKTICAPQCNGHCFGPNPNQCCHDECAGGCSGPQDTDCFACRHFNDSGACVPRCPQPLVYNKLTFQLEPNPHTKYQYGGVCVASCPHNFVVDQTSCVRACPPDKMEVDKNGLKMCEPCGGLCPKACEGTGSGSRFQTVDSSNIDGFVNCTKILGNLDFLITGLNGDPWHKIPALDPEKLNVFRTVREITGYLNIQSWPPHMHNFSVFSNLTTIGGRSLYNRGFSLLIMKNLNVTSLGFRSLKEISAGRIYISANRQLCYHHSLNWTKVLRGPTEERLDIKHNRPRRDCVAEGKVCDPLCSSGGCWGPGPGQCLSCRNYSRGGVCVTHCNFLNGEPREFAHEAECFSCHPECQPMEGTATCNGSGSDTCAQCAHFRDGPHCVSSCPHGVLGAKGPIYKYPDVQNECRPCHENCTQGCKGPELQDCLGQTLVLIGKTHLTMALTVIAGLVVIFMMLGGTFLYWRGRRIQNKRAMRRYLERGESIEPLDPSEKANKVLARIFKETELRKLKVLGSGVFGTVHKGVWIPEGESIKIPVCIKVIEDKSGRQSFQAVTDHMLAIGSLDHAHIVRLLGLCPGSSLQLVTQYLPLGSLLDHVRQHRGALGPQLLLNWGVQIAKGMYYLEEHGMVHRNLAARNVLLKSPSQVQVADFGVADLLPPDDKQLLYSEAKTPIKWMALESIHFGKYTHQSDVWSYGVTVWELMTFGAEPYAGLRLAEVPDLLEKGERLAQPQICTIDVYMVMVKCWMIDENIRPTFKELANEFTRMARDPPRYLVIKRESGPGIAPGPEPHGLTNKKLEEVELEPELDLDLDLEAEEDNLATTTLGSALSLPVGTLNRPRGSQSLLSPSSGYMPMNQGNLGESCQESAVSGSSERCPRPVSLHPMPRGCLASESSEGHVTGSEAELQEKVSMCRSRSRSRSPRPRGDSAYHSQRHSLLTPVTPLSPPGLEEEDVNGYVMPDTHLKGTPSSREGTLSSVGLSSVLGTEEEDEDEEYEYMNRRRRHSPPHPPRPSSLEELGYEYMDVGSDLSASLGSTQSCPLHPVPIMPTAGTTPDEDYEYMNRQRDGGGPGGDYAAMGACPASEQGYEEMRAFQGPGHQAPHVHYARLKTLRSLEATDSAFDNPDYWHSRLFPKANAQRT
Assay: cell-based or functional assay
experimental endpoint: BT-474 pAkt (S473) % inhibition (%)
Give the value in % but do not write % after it.

Solved cases (4 shown):
* MOR13869 (antibody, human IgG1, kappa, V domains shown, tested as IgG) VH: QVQLVQSGAEVKKPGESLKISCKGSGYSFSNYWIAWVRQMPGKGLEWMGIIYPGGSDTIYSPSFQGQVTISADKSISTAYLQWSSLKASDTAMYYCARVHIIQPPSAWSYNAMDVWGQGTLVTVSS VL: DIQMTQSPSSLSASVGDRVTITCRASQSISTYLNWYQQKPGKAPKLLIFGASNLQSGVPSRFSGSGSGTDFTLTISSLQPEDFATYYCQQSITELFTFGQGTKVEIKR | 79
* MOR13756 (antibody, human IgG1, kappa, V domains shown, tested as IgG) VH: QVQLVQSGAEVKKPGESLKISCKGSGYSFTLTWVAWVRQMPGKGLEWMGIIYPGQSDTIYSPSFQGQVTISADKSISTAYLQWSSLKASDTAMYYCARVHIIQPPSAWSYNAMDVWGQGTLVTVSS VL: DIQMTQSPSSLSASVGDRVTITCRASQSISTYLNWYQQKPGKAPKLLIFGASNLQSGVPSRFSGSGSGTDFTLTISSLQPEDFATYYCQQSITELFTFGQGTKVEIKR | 86
* MOR13766 (antibody, human IgG1, kappa, V domains shown, tested as IgG) VH: QVQLVQSGAEVKKPGESLKISCKGSGYSFTTTWVAWVRQMPGKGLEWMGIIYPGSSDTIYSPSFQGQVTISADKSISTAYLQWSSLKASDTAMYYCARVHIIQPPSAWSYNAMDVWGQGTLVTVSS VL: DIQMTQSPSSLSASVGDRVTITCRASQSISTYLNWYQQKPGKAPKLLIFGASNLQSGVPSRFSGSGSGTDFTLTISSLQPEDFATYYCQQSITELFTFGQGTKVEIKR | 75
* MOR13768 (antibody, human IgG1, kappa, V domains shown, tested as IgG) VH: QVQLVQSGAEVKKPGESLKISCKGSGYSFTSSWVAWVRQMPGKGLEWMGIIYPGQSDTIYSPSFQGQVTISADKSISTAYLQWSSLKASDTAMYYCARVHIIQPPSAWSYNAMDVWGQGTLVTVSS VL: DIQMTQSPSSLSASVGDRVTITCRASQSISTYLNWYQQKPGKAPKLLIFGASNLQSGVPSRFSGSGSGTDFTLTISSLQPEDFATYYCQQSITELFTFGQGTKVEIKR | 81

# context switch: different binder, same BT-474 pAkt (S473) % inhibition
Fill in BT-474 pAkt (S473) % inhibition for record MOR13868 (antibody, human IgG1, kappa, V domains shown, tested as IgG) VH: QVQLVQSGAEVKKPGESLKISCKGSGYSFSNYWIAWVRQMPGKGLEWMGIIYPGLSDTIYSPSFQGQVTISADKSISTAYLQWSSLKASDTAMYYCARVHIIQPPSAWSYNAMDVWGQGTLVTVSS VL: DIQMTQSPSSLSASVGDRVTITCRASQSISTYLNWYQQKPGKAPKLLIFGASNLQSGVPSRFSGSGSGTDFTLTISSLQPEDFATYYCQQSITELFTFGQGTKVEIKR
81

Hey, just so you know, these numbers are from patent US20130273029A1.
